- Tested on: MOLT-4 leukemia
- assay overview: NCI tumour cell line growth inhibition, 48 h
Listing: log10 TGI of selected compounds
measurement type: log10 TGI (log10 of the value in µM)

c1ccc(N=NNNc2ccc(-c3nc4ccccc4[nH]3)cc2)cc1; 1.57
C=C(CNCCO)[C@@H]1CC[C@]2(CO)CC[C@]3(C)[C@H](CC[C@@H]4[C@@]5(C)CCC(NCCc6ccc(O)cc6)C(C)(C)[C@@H]5CC[C@]43C)[C@@H]12 (stereo partly specified); 0.13
O=C1/C(=C/c2cccs2)N=C(c2ccccc2)N1C1Nc2cc3c(cc2S1)NC(N1C(=O)/C(=C/c2cccs2)N=C1c1ccccc1)S3 (stereo unspecified); 1.78
CCOC(=O)/C=C(/C(=O)OCC)n1cc(C)c(=O)n(Cc2cnnn2CCCCOC(C)=O)c1=O; 1.68
O=[N+]([O-])C(=C(NCc1ccccc1)NCc1ccccc1)C(Cl)=C(Cl)Cl; 1.72
CCCN(CCC)c1c([N+](=O)[O-])cc(S(N)(=O)=O)cc1[N+](=O)[O-]; 1.66
CCN(CC)C(=S)SSC1CCCCC1; 1.64
Cc1ccc2c3c1O[C@H]1c4nc5ccccc5cc4C[C@@]4(O)[C@@H](C2)N(CC2CC2)CC[C@]314; 1.19
COc1cccc(/C=C/C2=NN(c3cccc(S(=O)(=O)O)c3)C3(C2)SCC(=O)N3c2nc3ccccc3s2)c1 (stereo unspecified); 1.91
COc1cccc(C2c3cc4c(cc3OC(N3CCOCC3)C2C)OCO4)c1O (stereo unspecified); 1.63
NC1CCC(c2cc3ccccc3s2)(N2CCCCC2)CC1 (stereo unspecified); 0.51
Nc1ccc2c(c1)[O][Sn]([c]1ccccc1)([c]1ccccc1)[O]C2=O; 1.47
COC(=O)/C=C1/OC(c2ccccc2)=C(Cl)C1=O; 1.26
COc1ccc2c(c1)CC[C@@H]1[C@@H]2CC[C@]2(C)/C(=N/OCCN3CCCCC3)CC[C@@H]12; 0.92
Cc1ccc(N2C(=O)C(Cl)=C(Nc3cccc(O)c3)C2=O)cc1Cl; 1.33
CC[C@H]1C=CCC[C@@]2(C[C@@H]3CC[C@@H]4[C@H](C(=O)OCCCCCCCCCCCCCCCC(=O)N(CCCN)C[C@@H](O)CCN)[C@]5(CCC[C@@H](C)O5)NC(=[N+]34)N2)O1; -0.28
c1ccc2c(c1)SC1Sc3ccccc3[S+]21 (stereo unspecified); 1.68

----------
- Test system: SW-620 colon
- assay overview: NCI tumour cell line growth inhibition, 48 h
measurement type: TGI

CC1CC[C@]2(C(=O)O)CCC3(C)C(=C2[C@H]1C)C=CC1[C@@]2(C)CC[C@H](O)C(C)(C)C2CC[C@]13C (some centres undefined); > 100 µM
c1ccc2c(c1)SC1Sc3ccccc3[S+]21 (centres undefined); > 76.7 µM
CCCCCCCCCCCC(=O)C1=C(O)C(O)CCC1=O (centres undefined); 60 µM
O=c1c(OC/C(=N/O)c2ccccc2)c(-c2ccccc2)oc2ccccc12; 25.4 µM
Cn1c(N/N=C/c2ccc(Cl)cc2)nc(-c2ccc(Cl)cc2)c(C#N)c1=O; > 100 µM
CC1(C)N=C(N)N=C(N)N1c1cccc(CSc2ccccc2)c1; > 100 µM
CCCCCc1c(CCCC)c(=O)[nH]c2cc(CNCC(OC)OC)ccc12; 16.3 µM
Cc1c(C(=O)CC(=O)C(=O)NC2C3CC4CC(C3)CC2C4)[n+](=O)c2ccccc2n1[O-] (centres undefined); > 100 µM
CCCCCCCCCC[C@@H](O)[C@@H]1CC[C@@H]([C@@H]2CC[C@@H]([C@@H](O)CCCCCCCCCCC(O)CC3=CC(C)OC3=O)O2)O1 (some centres undefined); > 10 µM

----------
Listing: GI50 of selected compounds
- Test system: NCI/ADR-RES ovarian
measurement type: GI50

NC(N)=N/N=C/c1c(-c2cc(Cl)sc2Cl)nc2n1CCS2; > 50000 nM
O=C(Nc1ccc(Br)cc1)c1cc(Br)cc(Br)c1O; 2940 nM
Cc1ccc(-c2cc3nc(-c4ccccc4)nc(C(Cl)Cl)n3n2)cc1; 789 nM
O=[N+]([O-])/C=C\c1ccc2c(c1)OCO2; 10300 nM
CN(C)CCNc1cccc2sc3ccc(O)cc3c(=O)c12; 3140 nM
O=Nc1c2cccnc2n2nnc3ccc(Cl)cc3c12; 1290 nM

----------
Listing: TGI of selected molecules
- Tested on: HCT-116 colon
- assay overview: NCI tumour cell line growth inhibition, 48 h
Where a SMILES comes first, the peptide text is derived from it. The star is where a group is joined. Boc = CC(C)(C)OC(=O)*
measurement type: TGI

CCCCNC(=S)Nc1nc(C(=O)NNS(=O)(=O)c2ccccc2)cs1; 69.5 µM
CCCCCCCCOCC1S(=O)(=O)OCCOS1(=O)=O; > 100 µM
CN(C)Cc1cc(C(=O)O)cc(CN(C)C)c1O; > 100 µM
COc1ccc(-c2cn3ccnc3c(-c3ccc4ncn(C5CCCCC5)c4c3)n2)cc1; 4.06 µM
Nc1ncnc2c1ncn2C1OC(C(=O)O)C(O)C1O (stereo unspecified); > 100 µM
CN(C)c1ccc(/C=N/NC2=N/C(=C\c3ccco3)C(=O)N2)cc1; > 100 µM
CCN(CC)CCNc1ccc(N=Nc2ccc(S(N)(=O)=O)cc2)c2ccccc12; > 100 µM
S=C1CC(c2ccc(Cl)cc2)Sc2ccccc2N1 (stereo unspecified); > 100 µM
CC(NC(=O)C(NC(=O)OC(C)(C)C)C(C)C)C(=O)NCC(=O)O (stereo not drawn) (Boc-Val-Ala-Gly-OH; configuration not given here); > 100 µM
CN(C)CCNC(=O)c1cc([N+](=O)[O-])cc2ccc(-c3ccccc3)nc12; 13.4 µM
COc1ccc(CNc2nc3ccccc3nc2-c2cccs2)cc1; > 100 µM
CC[C@H]1C=CCC[C@@]2(C[C@@H]3CC[C@@H]4[C@H](C(=O)OCCCCCCCCCCCCCCCC(=O)N(CCCN)C[C@@H](O)CCN)[C@]5(CCC[C@@H](C)O5)NC(=[N+]34)N2)O1; 1.16 µM
O=C(N/N=C/c1ccc(F)cc1)c1[nH]c2ccc(I)cc2c1-c1ccccc1; 1.35 µM
CC1(C)N=C(N)N=C(N)N1c1cccc(CSc2ccccc2)c1; > 100 µM
O=C(O)C(Cc1ccc(O)c([N+](=O)[O-])c1)N1C(=O)c2ccccc2C1=O (stereo unspecified); > 100 µM
CN(C)CCNc1cccc2sc3ccc(O)cc3c(=O)c12; 9.68 µM
OCCCNCc1ccccn1; > 100 µM
O=C(/C=C/c1ccc([N+](=O)[O-])o1)NNC(=O)c1cc2ccccc2cc1O; 1.72 µM
CC(=O)Oc1ccc2c(c1)CC[C@@H]1C2[C@@H](O[N+](=O)[O-])C[C@@]2(C)C1CC[C@@H]2O (stereo partly specified); > 100 µM
c1cncc(C2c3[nH]c4ccccc4c3CCN2CCN2CCCCC2)c1 (stereo unspecified); > 100 µM
CCCCc1cc(O)ccc1O; 28.9 µM
CC1(C)C(=O)/C(=C\c2ccco2)C[C@]2(C)[C@H]3CC=C4[C@@H]5C[C@](C)(C(=O)O)CC[C@]5(C)CC[C@@]4(C)[C@]3(C)CC[C@@H]12; 26.1 µM
CSc1n[n+](C)cc(N)c1N; > 100 µM
OC1CN=C2c3ccccc3C(O)(c3ccc(Cl)cc3)N2C1 (stereo unspecified); > 100 µM
CCC(=O)N1C/C(=C/c2ccc(OC)cc2)C(=O)/C(=C/c2ccc(OC)cc2)C1; 0.646 µM
Cc1cc2ccccc2c[n+]1CC(=O)CC([O-])(C(F)(F)F)C(F)(F)F; > 100 µM
Cc1ccc2c3c1O[C@H]1c4nc5ccccc5cc4C[C@@]4(O)[C@@H](C2)N(CC2CC2)CC[C@]314; 17.2 µM
O=c1[nH]cnc2c1ncn2[C@H]1CO[C@@H](CO)[C@@H]1O; > 100 µM
C=C1CCCCCCCCCCC1S(=O)c1ccccc1 (stereo unspecified); > 100 µM
COC(=O)C(Cc1ccccc1)NC(=O)CNC(=O)CSc1nnc(COc2ccc(Cl)cc2)n1-c1ccccc1 (stereo unspecified); 33 µM
Fc1cccc2nc(-c3ccccc3)cc(OCc3ccccc3)c12; > 100 µM
CCn1c2c(c3c(C(=O)OC)c(O)ccc31)C(=O)c1ccccc1C2=O; 26.5 µM
COc1nc2c(c(=O)n1C)N[C@@H]1[C@@H](O)[C@H](O)CO[C@@H]1N2; > 100 µM
C=C1C(O)C2C(=C(CC(C)C)C13CC3)C(=O)C(C)(C)C2OC (stereo unspecified); > 100 µM
CC(O)C(NC(=O)C(CS)NC(=O)C(CO)NC(=O)C(CCCCN)NC(=O)C(Cc1c[nH]c2ccccc12)NC(=O)C(Cc1ccc(O)cc1)NC(=O)C(CS)NC(=O)C(N)Cc1ccccc1)C(N)=O (stereo unspecified); > 100 µM
Cc1cc2occ(C)c(=O)c2c2c1OC(C)(C)S2; > 100 µM
COC1C(=O)CCC2(CO2)C1(O)C1(C)OC1CCC(C)C (stereo unspecified); > 100 µM
CC(Nc1cc(Cl)cc(Cl)c1)c1ccncc1 (stereo unspecified); 31.6 µM
COc1cc(C(C#N)NNC(=O)c2ccccc2O)ccc1O (stereo unspecified); > 100 µM
O=S1(=O)c2ccccc2N2CCCc3cc(Cl)cc1c32; > 100 µM
O=C1c2cccc3cc([N+](=O)[O-])cc(c23)C(=O)N1CCCN1CCN(CCCN2C(=O)c3cccc4cc([N+](=O)[O-])cc(c34)C2=O)CC1; 1.34 µM

The reported numbers originate from PubChem BioAssay (NCI).
